System: LXRa:RXRa (NR concentration 270 nM, RXRa partner concentration 90 nM)
Measurement description: PBM binding z-score (relative to random genomic background probes); higher = stronger binding; sequences stand for … in GC…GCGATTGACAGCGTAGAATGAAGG
Binning of PBM binding z-score into classes: bottom range (below 0.09), center range (0.09 to below 2), top range (2 or more)

Answered cases to consult:
- Residues: "CCTAGCAGGCCAGGGTTACTCAAGCATTTCGCTT"
  Label value: "bottom range"
- Residues: "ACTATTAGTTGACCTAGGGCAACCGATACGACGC"
  Label value: "top range"
- Residues: "CCTAGCAGGCCAATCTGGGGCACTCAAGGCTTGA"
  Label value: "bottom range"

Returns: class label. Input: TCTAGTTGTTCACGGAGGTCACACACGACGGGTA
top range

Check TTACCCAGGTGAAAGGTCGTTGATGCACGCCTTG too.
top range
